Test system: Vero cells
Assay: Cytotoxicity MTT assay (0.1–1000 µM), CC50
Format: cell-based, Cercopithecus aethiops
Settings: 48 h, read-out: CC50 Normal Cell Lines Vero
measured-property: CC50 (µM)

molecule=Cc1c(C)[n+](Cc2cccc(F)c2)cn1Cc1ccccc1.[Cl-] measured_number=22.7
molecule="Cc1c(C)[n+](Cc2cccc(F)c2)cn1Cc1ccccc1 [1e[PF6]]" measured_number=56.3

* * *

Assay: Cytotoxicity MTT assay (0.1–1000 µM), CC50
Format: cell-based, Macaca mulatta
Details: Macaca mulatta, LLC-MK2 cells, LLC-MK2, MTT, 48 h; read-out: CC50 Normal Cell Lines LLC-MK2
measured-property: CC50 at 48 h

compound="Cc1c(C)[n+](Cc2ccccc2)cn1Cc1ccccc1 [Compound 1a, lepidiline A, reference compound]" measured_property="CC50 at 48 h" result="< 80 µM"
compound="COc1cccc(Cn2c[n+](Cc3ccccc3)c(C)c2C)c1 [Compound 1c, lepidiline C, reference compound]" measured_property="CC50 at 48 h" result="< 80 µM"
compound="Cc1c(C)n(Cc2ccccc2)c(=S)n1Cc1ccccc1 [Compound 10a]" measured_property="CC50 at 48 h" result="< 20 µM"
compound="FC(F)(F)c1cccc(C[n+]2cn(Cc3ccccc3)c(-c3ccccc3)c2-c2ccccc2)c1.[Br-] [Compound 9a]" measured_property="CC50 at 48 h" result="0.04 to 0.347 µM"

These entries and their values trace back to paper PMC9181938.
